The measured values listed here are drawn from patent US20250368745A1.

Biological target: T1, human IL-18BP (human, UniProt O95998 31-194)
T1 construct: UniProt printed as 095998; also called hIL-18BP
T1 sequence: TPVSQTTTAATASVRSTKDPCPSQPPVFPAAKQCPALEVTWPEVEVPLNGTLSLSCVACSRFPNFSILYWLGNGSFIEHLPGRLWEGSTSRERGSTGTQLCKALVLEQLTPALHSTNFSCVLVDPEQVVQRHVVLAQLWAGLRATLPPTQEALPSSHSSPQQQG
Assay: BLI, apparent KD
pKd: −log10 of the molar value.
Experimental readout: pKd

{"Binder": "SA301a HC-I51P (antibody, name in Kabat numbering, V domains shown, IgG1 kappa) VH: QVQLQESGPGLVKPSQTLSLTCTVSGYSITSDYNSHWIRQPPGKGLEWIGYPHYSGSTNYNPSLKSRVTISRDTSKNQFSLKLSSVTAADTAVYYCARNYGSIYVNYFDYWGQGTLVTVSS VL: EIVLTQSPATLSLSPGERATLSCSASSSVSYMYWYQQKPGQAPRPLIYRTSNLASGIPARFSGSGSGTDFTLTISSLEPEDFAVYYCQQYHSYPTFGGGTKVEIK", "Quantitative result": 8.43}
{"Binder": "SA301a HC-Y53P (antibody, name in Kabat numbering, V domains shown, IgG1 kappa) VH: QVQLQESGPGLVKPSQTLSLTCTVSGYSITSDYNSHWIRQPPGKGLEWIGYIHPSGSTNYNPSLKSRVTISRDTSKNQFSLKLSSVTAADTAVYYCARNYGSIYVNYFDYWGQGTLVTVSS VL: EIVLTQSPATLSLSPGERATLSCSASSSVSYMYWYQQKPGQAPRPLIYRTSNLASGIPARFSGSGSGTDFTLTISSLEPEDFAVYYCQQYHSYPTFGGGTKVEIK", "Quantitative result": 9.42}
{"Binder": "SA301a HC-Y53R (antibody, name in Kabat numbering, V domains shown, IgG1 kappa) VH: QVQLQESGPGLVKPSQTLSLTCTVSGYSITSDYNSHWIRQPPGKGLEWIGYIHRSGSTNYNPSLKSRVTISRDTSKNQFSLKLSSVTAADTAVYYCARNYGSIYVNYFDYWGQGTLVTVSS VL: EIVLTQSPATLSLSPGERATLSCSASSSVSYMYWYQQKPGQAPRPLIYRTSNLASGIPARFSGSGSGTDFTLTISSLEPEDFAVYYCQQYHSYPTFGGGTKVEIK", "Quantitative result": 8.15}
